Hello, the source for this data is patent US20250145566A1, in case you need it.

# Assay protocol: Rat liver microsomes (RLM) in vitro metabolism
# Type: in vitro ADME
# Condition: Sprague-Dawley, rat, rat liver microsomes; 1 μM test compound; read-out: half-life in the presence of rat liver microsome
Experimental readout: half-life at 1 µM

For this compound ( COc1cc(CCN)cc(OC)c1SC(F)(F)F ), measured half-life at 1 µM is > 2 h

###

# Experimental target: 5-HT2C (h) (Homo sapiens, UniProt P28335)
# Construct: expressed in transfected cells; host or cells: HEK-293 cells
# Sequence (P28335 33-458): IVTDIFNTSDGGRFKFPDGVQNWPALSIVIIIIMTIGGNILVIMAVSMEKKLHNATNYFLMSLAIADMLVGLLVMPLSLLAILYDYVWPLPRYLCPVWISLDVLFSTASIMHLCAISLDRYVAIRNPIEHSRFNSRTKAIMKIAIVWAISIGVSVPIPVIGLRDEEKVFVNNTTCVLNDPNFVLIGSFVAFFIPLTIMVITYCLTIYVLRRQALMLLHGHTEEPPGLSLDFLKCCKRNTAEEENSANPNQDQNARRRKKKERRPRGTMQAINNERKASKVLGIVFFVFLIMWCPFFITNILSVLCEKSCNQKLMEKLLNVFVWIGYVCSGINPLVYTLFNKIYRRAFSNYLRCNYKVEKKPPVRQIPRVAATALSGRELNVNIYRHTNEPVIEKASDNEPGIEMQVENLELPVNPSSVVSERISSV
# Assay protocol: 5-HT2C (h) agonist effect, IP1 HTRF functional assay
# Type: cell-based
# Condition: Gq-IP1; estimated from four concentrations; read-out: Function 5-HT2C Estimated EC50
pEC50: −log10 of the molar value.
Experimental readout: pEC50

The measured pEC50 that CC(N)Cc1ccc2c(c1)OCS2 (racemic) [II-16 (racemic)] showed for 5-HT2C (h) (Homo sapiens, UniProt P28335) is > 6.10
